Value source: ChEMBL document CHEMBL3988442

Documented Percent Effect across a set of compounds
- Tested on: Wolbachia pipientis
- protocol-summary: Anti-Wolbachia Cell-Based Screen
- Format: functional
- Design: scale not given: in the data most compounds retested in dose-response had high values
- assay-context: 5 µM
The campaign covered roughly 48,000 compounds. About 13,000 (27%) showed an effect of 50% or more. The list shows a part of the results.
readout-name: Percent Effect (%)

INSERT INTO assay_data (compound, readout_name, observed_value) VALUES
  ('CCNc1ccnc(-c2ccnc3c2ccn3C)n1', 'Percent Effect', 5.655),
  ('Cc1csc(N2CCN(C(=O)c3cc(Cl)c[nH]3)CC2)n1', 'Percent Effect', -16.71),
  ('Cc1ccccc1C(=O)N1CCOCC1CN(C)C.O=CO (centres undefined)', 'Percent Effect', -21.7),
  ('CCOCC1CN(C(=O)c2ccoc2C)Cc2cnn(C)c21 (centres undefined)', 'Percent Effect', 98.5),
  ('CN(C)CC1CCCCN1C(=O)c1ccc(N2CCOCC2)cc1 (centres undefined)', 'Percent Effect', 108.2),
  ('CC(=O)N1CCC(Oc2ccc(C#N)cc2)CC1', 'Percent Effect', -9.565),
  ('CCc1[nH]ncc1C(=O)N1CCN(c2nc(C)cc(OC)n2)CC1', 'Percent Effect', -4.996),
  ('CCOCC1CN(C(=O)CS(C)(=O)=O)Cc2cnn(C)c21.O=C(O)C(F)(F)F (centres undefined)', 'Percent Effect', 16.84),
  ('COc1ccccc1C1CNC(=O)c2nc(-c3nccn3C)[nH]c2C1 (centres undefined)', 'Percent Effect', 6.875),
  ('O=C(c1ccnnc1)N1C[C@@H](OCC2CCOCC2)[C@H]2OCCC[C@H]21', 'Percent Effect', -2.354),
  ('CCOCC1CN(C(=O)c2cnoc2C)Cc2cnn(C)c21.O=C(O)C(F)(F)F (centres undefined)', 'Percent Effect', 112.3),
  ('CC(C)c1cc(NCC2(CO)CCC2)ncn1', 'Percent Effect', -3.782),
  ('CCOCC1CN(C(=O)c2cnoc2C)Cc2cn(CC3CC3)nc21 (centres undefined)', 'Percent Effect', -17.44),
  ('Cc1cnn(CC2CCCCN2C(=O)c2ccc(CN(C)C)cc2)c1 (centres undefined)', 'Percent Effect', 17.54),
  ('CCC1CCCCN1C(=O)c1ccc2[nH]nnc2c1 (centres undefined)', 'Percent Effect', 1.78),
  ('CCOCC1CN(C(=O)c2ccco2)Cc2nn(C)cc21 (centres undefined)', 'Percent Effect', 6.633),
  ('CCCC(C)Sc1nnnn1C1CCOCC1 (centres undefined)', 'Percent Effect', -26.91),
  ('Cc1ccc(C(=O)N2CCN(CCc3cccs3)CC2)c(=O)[nH]1', 'Percent Effect', 4.078),
  ('Cc1nn(C)c2nc(-c3ccccn3)nc(NCCCOC(C)C)c12', 'Percent Effect', -17.61),
  ('COCCCC1CCCCN1C(=O)c1ccc(SCCO)cc1 (centres undefined)', 'Percent Effect', -1.649),
  ('CC(=O)Nc1ccc(-c2cn(CCn3c(C)cc(C)nc3=O)nn2)cc1', 'Percent Effect', -7),
  ('Cc1c(C(=O)N2CCCC(O)(CN(C)C)CC2)c2cc(O)ccc2n1C (centres undefined)', 'Percent Effect', -7.516),
  ('CCOCC1CN(C(=O)c2ccco2)Cc2cnn(C)c21 (centres undefined)', 'Percent Effect', 93.66),
  ('Cc1ccc(C(=O)N2CCCCC2CN(C)C)cc1 (centres undefined)', 'Percent Effect', 107.2);

###

- Tested on: Wolbachia pipientis
- protocol-summary: Anti-Wolbachia Cell-Based Screen
- Format: functional
- Design: scale not given: in the data most compounds retested in dose-response had high values
- assay-context: 5 µM
The whole screen tested about 48,000 compounds, of which about 13,000 (27%) showed an effect of 50% or more. The list shows a part of the results.
readout-name: Percent Effect (%)

INSERT INTO assay_data (chemical_string, readout_name, observed_value) VALUES
  ('Cc1cnn(CCC(=O)N2CCC3(CCC(=O)N(CC4CC4)C3)CC2)c1', 'Percent Effect', 86.63),
  ('Cc1nccn1CCCC(=O)N1CCN(c2cccnc2)CC1', 'Percent Effect', -0.7063),
  ('COc1ccc(C(=O)N2CCC3(CCC(=O)N(C(C)C)C3)CC2)cc1C', 'Percent Effect', 7.605),
  ('Cc1cc(N2CCC3(CCC(=O)N(CC4CC4)C3)CC2)ncn1', 'Percent Effect', 3.21),
  ('Cc1nccn1CCCN1CCC2(CCC(=O)N(CC3CC3)C2)CC1', 'Percent Effect', 94.75),
  ('Cc1cnn(CC(=O)N2CCC3(CCC(=O)N(CCCO)C3)CC2)c1', 'Percent Effect', -87.52);

###

- System: Wolbachia pipientis
- protocol-summary: Anti-Wolbachia Cell-Based Screen
- Format: functional
- Design: scale not given: in the data most compounds retested in dose-response had high values
- assay-context: 5 µM
Among all 48,000 compounds or so, about 13,000 (27%) showed an effect of 50% or more. This is one part of the list.
readout-name: Percent Effect

INSERT INTO assay_data (compound, observed_value) VALUES
  ('Cc1nc(CN(Cc2ccc3c(c2)OCCO3)C2CCCC2)no1', '158.9%'),
  ('Cc1cc(C)n2nc(C(=O)N3CCCC4(CNC(=O)O4)C3)cc2n1 (stereo not given)', '1.638%'),
  ('Cc1csc(CNC(=O)N(C)Cc2ccc3c(c2)OCCO3)n1', '-8.149%'),
  ('CCc1ncc(C(=O)NCCNc2ccncc2)s1', '82.39%'),
  ('CCc1noc(CN(C)C(=O)C(C)(C)Oc2cccc(Cl)c2)n1', '11.07%'),
  ('Cc1cnc2n(c1=O)C(CC(=O)NCc1cccs1)CS2 (stereo not given)', '81.1%'),
  ('CCc1noc(CN(C)C(=O)c2ccnc(OC3CCC3)c2)n1', '-5.488%'),
  ('CCc1ncc(C(=O)NCCNC(=O)Cc2ccc(F)cc2)s1', '-2.58%'),
  ('Cc1cnc2n(c1=O)C(CC(=O)NCc1ccco1)CS2 (stereo not given)', '71.35%'),
  ('CCS(=O)(=O)N1CCc2cc(C(=O)NC)c(NCC(C)C)nc2CC1', '-9.983%'),
  ('Cc1ncc(C(=O)NCCNc2ccncc2)s1', '106.3%'),
  ('O=C(CC1CSc2nccc(=O)n21)NCc1cc(-c2ccco2)on1 (stereo not given)', '-4.448%'),
  ('Cc1ccnn1CC(=O)Nc1cc(-c2ccncc2)[nH]n1', '-6.833%'),
  ('CCCC(C)(C)NC(=O)c1cnc(C)s1', '-0.6309%'),
  ('Cc1cccc(C)c1OC1CN(Cc2cnc(-c3ccco3)nc2)C1', '-6.327%'),
  ('CCN(CC)[C@H]1C[C@@H](Cc2cc(CO)on2)C1(C)C', '-1.281%'),
  ('CCCc1noc(CN(C)Cc2ccc3c(c2)OCO3)n1', '-4.394%'),
  ('Cc1cnc2n(c1=O)C(CC(=O)NCc1cc(-c3cccs3)on1)CS2 (stereo not given)', '-18.75%'),
  ('CN(C)C(=O)c1cc(-c2ccncc2)[nH]n1', '116.7%'),
  ('CC(C)n1cnc2c1C(C(=O)NCCO)N(Cc1ccccc1)CC2.O=C(O)C(F)(F)F (stereo not given)', '2.168%'),
  ('CCCn1cnnc1CNC(=O)C1COc2c(cccc2OC)C1 (stereo not given)', '-10.56%'),
  ('CN(C)C(=O)c1cc(-c2ccccc2)[nH]n1', '125.1%'),
  ('CCc1noc(CN(Cc2ccc3c(c2)OCO3)C2CCCC2)n1', '130.5%'),
  ('Cc1noc(CN(C)Cc2ccc3c(c2)OCO3)n1', '95.73%'),
  ('Cc1ncc(C(=O)NCCNc2ncnc3sccc23)s1', '-47.31%');

###

Recorded measurements of Percent Effect, one per entry
- System: Wolbachia pipientis
- protocol-summary: Anti-Wolbachia Cell-Based Screen
- Format: functional
- Parameters: scale not given: in the data most compounds retested in dose-response had high values
- assay-context: 5 µM
The whole screen tested about 48,000 compounds, of which about 13,000 (27%) showed an effect of 50% or more. This is one part of the list.
readout-name: Percent Effect (%)

INSERT INTO results (molecule, test_system, observed_value) VALUES
  ('Cc1noc(-c2c[nH]nc2C2CCCN2C(=O)c2ccccc2)c1C (configuration not stated)', 'Wolbachia pipientis', 143.3),
  ('Cc1nc(CN2CC(CO)Oc3ccccc32)sc1C (configuration not stated)', 'Wolbachia pipientis', -1.227),
  ('COCc1cccc(C(=O)N2CCCCC2c2nccs2)c1 (configuration not stated)', 'Wolbachia pipientis', 13.03),
  ('CN1CCCC2(CCN(C(=O)Cc3cc4c(cc3Cl)OCCO4)C2)C1=O (configuration not stated)', 'Wolbachia pipientis', -11.77),
  ('O=C(NCCO)Nc1c(F)cc(F)cc1-c1ccccc1', 'Wolbachia pipientis', 122.6),
  ('O=C(NCCO)Nc1c(F)cccc1Oc1ccccc1', 'Wolbachia pipientis', 2.837),
  ('COCC(O)CNC(=O)c1coc(COc2cccc(F)c2)n1 (configuration not stated)', 'Wolbachia pipientis', 3.844),
  ('Cc1noc(C)c1CNc1cccc(C(=O)N2CCCC(O)C2)c1 (configuration not stated)', 'Wolbachia pipientis', 6.213),
  ('COc1cc(NC(=O)NC2CCOCC2)ccc1N1CCOC1=O', 'Wolbachia pipientis', -14.6),
  ('Cc1nc(O)ccc1C(=O)N1CCCC1c1nc(-c2ccccc2)n[nH]1 (configuration not stated)', 'Wolbachia pipientis', -6.533),
  ('Cc1cc(-c2c[nH]nc2C2CCCCN2C(=O)c2ccccc2)on1 (configuration not stated)', 'Wolbachia pipientis', 116.8),
  ('COCC(O)CNC(=O)c1cnc(-c2ccccc2)nc1O (configuration not stated)', 'Wolbachia pipientis', -15.86);
